The measured values listed here are drawn from the supplement of paper PMC10646978.

viability score values, listed per item
- Tested on: RAW-Dual (murine macrophage reporter line)
- experiment: viability score (confluency relative to resting cells, overnight) (fraction); higher = more viable, active = viable (0.7 or more)
- recorded.conditions: modulator concentration 10 µM

Some compounds with recorded viability score:
>  <compound>
CN1C(=O)C(=C2SC(=S)N(C(CCC(=O)O)C(=O)O)C2=O)c2ccccc21 (stereo not given)

>  <viability score>
1.01 (active)

$$$$
>  <compound>
COc1ccc(-c2ccc(OCCNC(=O)Cc3ccc(Br)cc3)nn2)cc1

>  <viability score>
1 (active)

$$$$
>  <compound>
Cc1ccc(CNC(=O)C(=O)NC2CCCCC2)cc1

>  <viability score>
1.01 (active)

$$$$

Value of measured viability score for the entry CCN(CC)CCCC(C)Nc1c2ccc(Cl)cc2nc2ccc(OC)cc12 (stereo not given) [Prestw-318] : 0.825 (active)

Value of measured viability score for the entry COC(=O)N[C@H](C(=O)N[C@@H](Cc1ccccc1)[C@@H](O)CN(Cc1ccc(-c2ccccn2)cc1)NC(=O)[C@@H](NC(=O)OC)C(C)(C)C)C(C)(C)C.O=S(=O)(O)O : 1.01 (active)

Value of measured viability score for the entry O=C1Cc2cc(NC(=O)c3ccc(OC(F)(F)F)cc3)ccc2N1 : 1 (active)

---

- System: RAW-Dual (murine macrophage reporter line)
- experiment: IRF reporter (Lucia luciferase) activity fold change vs agonist alone; higher = enhanced IRF activity
- recorded.conditions: modulator concentration 10 µM; agonist: LPS 0.1 ug/mL
IRF reporter values, listed per item
# answer = number (no unit)

>  <compound>
CC#C[C@]1(O)CC[C@H]2[C@@H]3CCC4=CC(=O)CCC4=C3[C@@H](c3ccc(N(C)C)cc3)C[C@@]21C

>  <IRF reporter>
0.868

$$$$
>  <compound>
COc1cc2c(cc1OC)C(=O)NC1(CCCC1)C2

>  <IRF reporter>
0.872

$$$$
>  <compound>
O=C(C=Cc1cc([N+](=O)[O-])ccc1O)c1ccc(Cl)cc1

>  <IRF reporter>
1.28

$$$$
>  <compound>
Cc1ncn(CC(=O)N2CC(Oc3cccc(C(F)(F)F)n3)C2)c(=O)c1C

>  <IRF reporter>
1.21

$$$$
>  <compound>
O=C(Nc1cc(N2CCN(Cc3ccccc3)CC2)ncn1)c1ccc2ccccc2n1

>  <IRF reporter>
1.07

$$$$
>  <compound>
O=c1[nH]c(NN=Cc2c3ccccc3cc3ccccc23)nc2ccccc12

>  <IRF reporter>
1.82

$$$$
>  <compound>
Cc1cc(C)n(C2CC(=O)N(c3ccccc3)C2=O)n1 (stereo not given)

>  <IRF reporter>
1.31

$$$$
>  <compound>
C[C@H](NC(=O)C(=O)Nc1ccccc1C(C)(C)C)C(=O)N[C@@H](CC(=O)O)C(=O)COc1c(F)c(F)cc(F)c1F

>  <IRF reporter>
0.839

$$$$

Value of measured IRF reporter for the entry COc1ccc(C2CC(=O)c3c(O)cc(O)cc3O2)cc1O (stereo not given) : 1.14

Value of measured IRF reporter for the entry O=C(Nc1nccs1)c1ccc2c(c1)C(=O)N(CC1CCCO1)C2=O (stereo not given) : 1.04

---

- Tested on: RAW-Dual (murine macrophage reporter line)
- experiment: NF-kB reporter (SEAP) activity fold change vs agonist alone; higher = enhanced NF-kB activity
- recorded.conditions: modulator concentration 10 µM; agonist: CpG ODN 1826 0.5 ug/mL
experimental.endpoint: NF-kB reporter

Some molecules with recorded NF-kB reporter:
>  <molecule>
CCOc1ccccc1NC(=O)N1CCCC1CS(=O)(=O)c1ccccc1 (stereo not given)

>  <experimental.endpoint>
NF-kB reporter

>  <reported.measurement>
1.01

$$$$
>  <molecule>
O=C(Nc1ccccn1)NC1CCS(=O)(=O)C1 (stereo not given)

>  <experimental.endpoint>
NF-kB reporter

>  <reported.measurement>
0.659

$$$$
>  <molecule>
O=[N+]([O-])c1ccccc1S(=O)(=O)N1CCCC1

>  <experimental.endpoint>
NF-kB reporter

>  <reported.measurement>
0.974

$$$$
>  <molecule>
CCOP(C)(=O)C(c1ccccc1)N(C)S(C)(=O)=O (stereo not given)

>  <experimental.endpoint>
NF-kB reporter

>  <reported.measurement>
1.01

$$$$
>  <molecule>
CNC1(C)C2CCC(C2)C1(C)C.Cl (stereo not given)

>  <experimental.endpoint>
NF-kB reporter

>  <reported.measurement>
0.914

$$$$
>  <molecule>
COc1ccc(CNCc2ccc3ccccc3c2)c(OC)c1

>  <experimental.endpoint>
NF-kB reporter

>  <reported.measurement>
0.163

$$$$

Value of measured NF-kB reporter for the entry O=C(Cc1ccc(Cl)cc1)Nc1ccc2oc(-c3c(F)c(F)c(F)c(F)c3F)nc2c1 : 0.931

Value of measured NF-kB reporter for the entry OCCN1CCN(CCCN2c3ccccc3Sc3ccc(Cl)cc32)CC1 : 1.21

Value of measured NF-kB reporter for the entry CCc1nc(N)nc(N)c1-c1ccc(Cl)cc1 : 1.23

Value of measured NF-kB reporter for the entry COc1ccc(NC(=O)Cc2cn(Cc3ccccc3)c3ccccc23)cc1OC : 0.629

Value of measured NF-kB reporter for the entry Cn1cc(-c2cc(CNC(=O)c3cncc(F)c3)ccn2)cn1 : 1.12

Value of measured NF-kB reporter for the entry CC(=O)N1CCC(C(=O)NC(Cn2nccn2)c2ccccc2)CC1 (stereo not given) : 0.87

---

- Tested on: RAW-Dual (murine macrophage reporter line)
- experiment: viability score (confluency relative to resting cells, overnight) (fraction); higher = more viable, active = viable (0.7 or more)
- recorded.conditions: modulator concentration 10 µM
// classify into yes (1) (active), no (0) (inactive)

Solved cases (10 shown):
>  <compound>
NCCCS(=O)(=O)O

>  <classification>
yes (1)

$$$$
>  <compound>
CC(=O)Oc1cc(C(F)(F)F)ccc1C(=O)O

>  <classification>
yes (1)

$$$$
>  <compound>
CCn1c(C=Nn2cnnc2)nc2ccccc21

>  <classification>
yes (1)

$$$$
>  <compound>
CN1CCN(CCC=C2c3ccccc3Sc3ccc(S(=O)(=O)N(C)C)cc32)CC1

>  <classification>
yes (1)

$$$$
>  <compound>
O=C(O)c1ccc(-n2nc(-c3ccccc3O)nc2-c2ccccc2O)cc1

>  <classification>
yes (1)

$$$$
>  <compound>
Cc1cc2c(C)cc[n+](CCCS(=O)(=O)[O-])c2cc1C

>  <classification>
yes (1)

$$$$
>  <compound>
CN(C)CC#CCNC(=O)Nc1ccc(C(F)(F)F)cc1

>  <classification>
yes (1)

$$$$
>  <compound>
O=C(O)C=C(CC(=O)O)C(=O)O

>  <classification>
yes (1)

$$$$
>  <compound>
CCOC(=O)C1=C(C)NC(C)=C(C(=O)OCC)C1c1cc(Cl)cc(Cl)c1OC

>  <classification>
no (0)

$$$$
>  <compound>
COc1ccc(CNCc2cccc3ccccc23)cc1OC

>  <classification>
yes (1)

$$$$

Lookup: I'd appreciate the recorded outcome for COc1ccc(-c2cc(C(F)(F)F)n3nc(C(=O)Nc4cc(OC)c(OC)c(OC)c4)c(Cl)c3n2)cc1OC from this test.
Found: yes (1)

Lookup: I'd appreciate the recorded outcome for Cc1ccc2nc(NC(=O)CSc3nc4c(c(=O)n3-c3ccccc3)SCC4)sc2c1 from this test.
Found: yes (1)

Lookup: I'd appreciate the recorded outcome for Cc1cccc(C)c1NC(=O)CC(C)c1ccccc1 (centres undefined) from this test.
Found: yes (1)

Lookup: I'd appreciate the recorded outcome for Cc1sc(NC(=O)c2cc(Cl)ccc2[N+](=O)[O-])nc1-c1ccccc1 from this test.
Found: yes (1)

Lookup: I'd appreciate the recorded outcome for O=C(O)c1cc(O)c(O)c(O)c1 from this test.
Found: yes (1)

Lookup: I'd appreciate the recorded outcome for COc1c(C)c2c(c(O)c1C/C=C(\C)CCC(=O)OCCN1CCOCC1)C(=O)OC2 from this test.
Found: yes (1)

Lookup: I'd appreciate the recorded outcome for O=C(Cc1ccc(Cl)cc1)Nc1ccc2oc(-c3c(F)c(F)c(F)c(F)c3F)nc2c1 from this test.
Found: yes (1)

Lookup: I'd appreciate the recorded outcome for COC(=O)COc1ccc2oc(=O)cc(-c3cc4cccc(OC)c4o3)c2c1 from this test.
Found: yes (1)

Lookup: I'd appreciate the recorded outcome for Oc1c(Br)cc(C=NNc2nc3ccccc3s2)c(O)c1Br from this test.
Found: yes (1)

Lookup: I'd appreciate the recorded outcome for CC(=NNC(N)=S)C1=CC(C)(C)CCC1 from this test.
Found: yes (1)

Lookup: I'd appreciate the recorded outcome for CCN(CC)c1ccc(C=NNC(=O)c2ccc(O)cc2)c(O)c1 from this test.
Found: no (0)

Lookup: I'd appreciate the recorded outcome for COc1ccc(Br)cc1S(=O)(=O)NCc1ccccc1 from this test.
Found: yes (1)

Lookup: I'd appreciate the recorded outcome for O=C1CCCN1c1ccc(Cn2cc(-c3nc(-c4ccc(F)cc4)no3)ccc2=O)cc1 from this test.
Found: yes (1)

Lookup: I'd appreciate the recorded outcome for CC(C)(O)CNC(=O)c1cccc([N+](=O)[O-])c1 from this test.
Found: yes (1)

Lookup: I'd appreciate the recorded outcome for Nc1ccc(C=Cc2ccccc2)cc1 from this test.
Found: yes (1)

Lookup: I'd appreciate the recorded outcome for O=C(CC12CC3CC(CC(C3)C1)C2)N1CCCCC1 from this test.
Found: yes (1)

Lookup: I'd appreciate the recorded outcome for COC1CCN(C2CN(C(=O)CCn3cnc4ccccc4c3=O)C2)CC1 from this test.
Found: yes (1)

Lookup: I'd appreciate the recorded outcome for CC(=NNC(=O)CSc1nc2ccccc2n1Cc1ccccc1)c1ccc(Br)cc1 from this test.
Found: yes (1)

Lookup: I'd appreciate the recorded outcome for CC(C)c1nc(CN(C)C(=O)N[C@H](C(=O)N[C@@H](Cc2ccccc2)C[C@H](O)[C@H](Cc2ccccc2)NC(=O)OCc2cncs2)C(C)C)cs1 from this test.
Found: yes (1)

Lookup: I'd appreciate the recorded outcome for O=C(O[C@H]1C[C@H]2CC3C[C@@H](C1)N2CC3=O)c1c[nH]c2ccccc12 from this test.
Found: yes (1)

Lookup: I'd appreciate the recorded outcome for CCc1nc(N)nc(N)c1-c1ccc(Cl)cc1 from this test.
Found: yes (1)

Lookup: I'd appreciate the recorded outcome for O=C(Cc1ccc(F)cc1F)N1CCC(n2c(=O)[nH]c3ccccc3c2=O)CC1 from this test.
Found: yes (1)

Lookup: I'd appreciate the recorded outcome for CC1=C(C(=O)Nc2ccc(C)cn2)C(c2ccccc2Cl)C2=C(CCCC2=O)N1 (centres undefined) from this test.
Found: yes (1)
